Just for reference, patent US20180334702A1 is where these values come from.

- target.or.system: CDK4/6
- assay.protocol: cell-based or functional assay
- applied.conditions: scale: relative value
No end group written: not given here. *: point of attachment. aminohexane = linker joining biotin to the N-terminal residue; Biotin = O=C1N[C@H]2[C@H](CS[C@H]2CCCCC(=O)*)N1
CDK4/6 Reactivity vs 5: at or above is label 1, below is label 0.

Consider the worked cases shown below.
[
  {
    "binder": "{Biotin-aminohexane}-GMPWSFNPWWRGGGG [Polypeptide 16]",
    "category.label": "label 0"
  },
  {
    "binder": "{Biotin-aminohexane}-GMYWSPNPWWRGGGG [Polypeptide E]",
    "category.label": "label 1"
  },
  {
    "binder": "{Biotin-aminohexane}-AMPWSPNPWWRGGGG [Polypeptide 2]",
    "category.label": "label 1"
  },
  {
    "binder": "{Biotin-aminohexane}-GMPWSWNPWWRGGGG [Polypeptide 15]",
    "category.label": "label 0"
  }
]

Now look at this entry.
[Q] Can {Biotin-aminohexane}-GMPWSPNPWWRGGGG [Polypeptide 1] be said to have CDK4/6 Reactivity at or above 5?
[A] label 1
